# System: Klebsiella pneumoniae
# Assay Details: Antibacterial activity against Klebsiella pneumoniae ATCC 10031 at 1 mg/ml after 24 hrs by well-diffusion method
# Format: functional
# Test Settings: ATCC 10031, 24 h, read-out: DIZ
Label yes (1) when zone of inhibition at 1000 µg/mL >= 6 mm; otherwise no (0).

Entry Smiles	Assigned Label
Clc1ccc(-c2nnc(-c3ccc(-c4nnc(-c5ccc(Cl)cc5)o4)cc3)o2)cc1	no (0)
Cc1cc(NS(=O)(=O)c2ccc(N)cc2)no1	yes (1)
COc1ccc(-c2nnc(-c3ccc(-c4nnc(-c5ccc(OC)cc5)o4)cc3)o2)cc1	no (0)
O=[N+]([O-])c1ccc(-c2nnc(-c3ccc(-c4nnc(-c5ccc([N+](=O)[O-])cc5)o4)cc3)o2)cc1	yes (1)
O=C(N/N=C/c1ccccc1)c1ccc(C(=O)N/N=C/c2ccccc2)cc1	no (0)
c1ccc(-c2nnc(-c3ccc(-c4nnc(-c5ccccc5)o4)cc3)o2)cc1	yes (1)

* * *

# System: Klebsiella pneumoniae
# Assay Details: Antibacterial activity against Klebsiella pneumoniae ATCC 10031 at 1 mg/ml after 24 hrs by well-diffusion method
# Assay type: functional
# Test Settings: ATCC 10031, 24 h, read-out: DIZ

Molecule	Unit Text	zone of inhibition at 1000 µg/mL
O=C(N/N=C/c1ccccc1Br)c1ccc(C(=O)N/N=C/c2ccccc2Br)cc1	mm	5
Nc1ccc(-c2nnc(-c3ccc(-c4nnc(-c5ccc(N)cc5)o4)cc3)o2)cc1	mm	5
O=C(NN1C(=O)CSC1c1ccccc1Br)c1ccc(C(=O)NN2C(=O)CSC2c2ccccc2Br)cc1 (centres undefined)	mm	7
O=C(NN1C(=O)CSC1c1ccccc1Cl)c1ccc(C(=O)NN2C(=O)CSC2c2ccccc2Cl)cc1 (centres undefined)	mm	6
O=[N+]([O-])c1ccc(-c2nn3c(-c4ccc(-c5nnc6sc(-c7ccc([N+](=O)[O-])cc7)nn56)cc4)nnc3s2)cc1	mm	5
O=C(O)c1cn(C2CC2)c2cc(N3CCNCC3)c(F)cc2c1=O	mm	21
O=C(N/N=C/c1ccc(O)cc1)c1ccc(C(=O)N/N=C/c2ccc(O)cc2)cc1	mm	5
Oc1ccc(-c2nnc(-c3ccc(-c4nnc(-c5ccc(O)cc5)o4)cc3)o2)cc1	mm	6
COc1ccc(/C=N/NC(=O)c2ccc(C(=O)N/N=C/c3ccc(OC)cc3)cc2)cc1	mm	6
